Source of measurements: ChEMBL document CHEMBL5038587

target: DNA topoisomerase 1 (Homo sapiens); experiment: Inhibition of recombinant TOP1 (unknown origin) at 1 uM using 3'-[32P]-labeled 117 bp DNA oligonucleotides as substrate incubated for 20 mins by PAGE analysis relative to CPT
The source made the active and inactive calls. No cut-off for these calls is given here.
propertyName: inhibition

Example molecules with recorded inhibition:
COc1ccc2c(c1OC)c(=O)n(CCN(C)C)c1c3ccccc3ccc21; inactive
COc1cc2c(=O)n(CCN(C)C)c3c4cc5c(cc4ccc3c2cc1OC(C)C)OCO5; 20%
COc1ccc2c(=O)n(CCN(C)C)c3c4ccccc4ccc3c2c1; 20%
CN(C)CCn1c(=O)c2ccc(C(F)(F)F)cc2c2ccc3cc4c(cc3c21)OCO4; 50%
COc1cccc2ccc3c4ccccc4c(=O)n(CCN(C)C)c3c12; inactive
COc1cc2ccc3c4ccccc4c(=O)n(CCN(C)C)c3c2cc1OC; 20%
COc1cccc2c1c(=O)n(CCN(C)C)c1c3ccccc3ccc21; inactive
CN(C)CCn1c(=O)c2cc(F)c(F)cc2c2ccc3cc4c(cc3c21)OCO4; 75%
CN(C)CCn1c(=O)c2cc(F)c(F)cc2c2ccc3ccccc3c21; 50%
COc1cc2c3ccccc3c(=O)n(CCN(C)C)c2c2ccccc12; < 20%

Moving on to the next molecule.
Data point: "CN(C)CCn1c(=O)c2cc(O)ccc2c2ccc3ccccc3c21" ; inhibition = 20%

* * *

target: UniProt:P11387; assay: Inhibition of recombinant TOP1 (unknown origin) at 1 uM using 3'-[32P]-labeled 117 bp DNA oligonucleotides as substrate incubated for 20 mins by PAGE analysis relative to CPT
Sequence (P11387 whole entry): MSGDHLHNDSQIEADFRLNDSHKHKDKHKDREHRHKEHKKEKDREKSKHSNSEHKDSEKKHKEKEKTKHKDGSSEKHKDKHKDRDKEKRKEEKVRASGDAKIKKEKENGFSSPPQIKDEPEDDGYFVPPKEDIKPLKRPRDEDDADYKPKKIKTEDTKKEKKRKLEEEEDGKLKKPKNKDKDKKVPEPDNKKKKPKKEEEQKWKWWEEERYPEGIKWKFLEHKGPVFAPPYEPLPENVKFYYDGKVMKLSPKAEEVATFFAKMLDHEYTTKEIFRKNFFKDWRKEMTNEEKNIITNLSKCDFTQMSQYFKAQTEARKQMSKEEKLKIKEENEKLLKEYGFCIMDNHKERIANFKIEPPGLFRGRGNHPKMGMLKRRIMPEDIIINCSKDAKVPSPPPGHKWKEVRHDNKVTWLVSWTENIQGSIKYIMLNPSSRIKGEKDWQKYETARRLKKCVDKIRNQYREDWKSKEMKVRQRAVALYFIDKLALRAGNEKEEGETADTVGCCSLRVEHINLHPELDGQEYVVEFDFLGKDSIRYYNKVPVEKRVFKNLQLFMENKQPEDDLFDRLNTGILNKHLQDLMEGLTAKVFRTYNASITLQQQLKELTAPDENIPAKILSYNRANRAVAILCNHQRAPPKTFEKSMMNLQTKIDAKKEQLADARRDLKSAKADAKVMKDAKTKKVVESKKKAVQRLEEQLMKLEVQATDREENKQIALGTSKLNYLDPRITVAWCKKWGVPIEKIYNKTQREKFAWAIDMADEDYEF
Calls of active or inactive are those of the source. The rule behind the calls is not given here.
propertyName: inhibition

Below are worked cases with known answers.
CN(C)CCn1c(=O)c2c3c(ccc2c2ccc4ccccc4c21)OCO3; 20%
COc1ccc2c(ccc3c4ccccc4c(=O)n(CCN(C)C)c23)c1; 20%
CN(C)CCn1c(=O)c2cc3c(cc2c2ccc4ccccc4c21)OCO3; 25%
COc1cc2ccccc2c2c1c1ccccc1c(=O)n2CCN(C)C; inactive
COc1cccc2c1c(=O)n(CCN(C)C)c1c3cc4c(cc3ccc21)OCO4; 20%

Switching to the query record.
The compound listed as "COc1cc2ccc3c4ccc(OC)c(OC)c4c(=O)n(CCN(C)C)c3c2cc1OC" has a reported inhibition of inactive

* * *

molecular target: DNA topoisomerase 1 (Homo sapiens); assay: Inhibition of recombinant TOP1 (unknown origin) at 1 uM using 3'-[32P]-labeled 117 bp DNA oligonucleotides as substrate incubated for 20 mins by PAGE analysis relative to CPT
Active and inactive are the calls of the source. The rule behind the calls is not given here.
propertyName: inhibition

Example cases with answers are listed next.
CN(C)CCn1c(=O)c2c(O)c(O)ccc2c2ccc3cc4c(cc3c21)OCO4; 75%
CN(C)CCn1c(=O)c2ccccc2c2ccc3cc(Br)ccc3c21; 20%
COc1ccc2c(c1)c(=O)n(CCN(C)C)c1c3ccccc3ccc21; 20%
COc1cc2ccc3c4c(OC)c(OC)ccc4c(=O)n(CCN(C)C)c3c2cc1OC; inactive
COc1cc2c(=O)n(CCN(C)C)c3c4cc5c(cc4ccc3c2cc1O)OCO5; 20%
COc1cc2ccc3c4cc5c(cc4c(=O)n(CCN(C)C)c3c2cc1OC)OCO5; < 20%
COc1ccc2ccc3c4ccccc4c(=O)n(CCN(C)C)c3c2c1; 20%
COc1ccc2c(=O)n(CCN(C)C)c3c4cc5c(cc4ccc3c2c1O)OCO5; inactive

Hey, DNA topoisomerase 1 (Homo sapiens) data for "CN(C)CCn1c(=O)c2cc3c(cc2c2ccc4cc5c(cc4c21)OCO5)OCO3" : inhibition came out at 20%

With DNA topoisomerase 1 (Homo sapiens) as the test system, "CN(C)CCn1c(=O)c2ccccc2c2ccc3ccccc3c21" showed inhibition of 20%

Short answer on DNA topoisomerase 1 (Homo sapiens) for "CN(C)CCn1c(=O)c2cc(Br)ccc2c2ccc3cc4c(cc3c21)OCO4" , inhibition: inactive

The observed inhibition for "CN(C)CCn1c(=O)c2c3c(ccc2c2ccc4cc5c(cc4c21)OCO5)OCO3" when tested with DNA topoisomerase 1 (Homo sapiens) stands at 20%
